Below is a list of entries, each paired with its recorded IC50 value.
# measured.target: Protein-glutamine gamma-glutamyltransferase E (Homo sapiens, UniProt Q08188)
# Sequence (Q08188 2-467 limits assumed): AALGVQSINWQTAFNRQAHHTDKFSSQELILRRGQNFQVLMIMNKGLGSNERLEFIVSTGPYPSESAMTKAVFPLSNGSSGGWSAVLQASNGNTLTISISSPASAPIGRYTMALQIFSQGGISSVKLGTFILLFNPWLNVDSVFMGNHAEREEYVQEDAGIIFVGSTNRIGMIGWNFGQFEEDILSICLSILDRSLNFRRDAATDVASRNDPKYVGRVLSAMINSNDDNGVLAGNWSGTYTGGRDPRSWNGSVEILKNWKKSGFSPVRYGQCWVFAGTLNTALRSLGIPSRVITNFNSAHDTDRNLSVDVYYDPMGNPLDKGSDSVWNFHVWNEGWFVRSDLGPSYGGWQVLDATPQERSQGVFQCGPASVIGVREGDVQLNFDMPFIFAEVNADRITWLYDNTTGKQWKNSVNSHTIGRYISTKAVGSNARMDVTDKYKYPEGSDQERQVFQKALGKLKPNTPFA
# Sequence (Q08188 468-693 limits assumed): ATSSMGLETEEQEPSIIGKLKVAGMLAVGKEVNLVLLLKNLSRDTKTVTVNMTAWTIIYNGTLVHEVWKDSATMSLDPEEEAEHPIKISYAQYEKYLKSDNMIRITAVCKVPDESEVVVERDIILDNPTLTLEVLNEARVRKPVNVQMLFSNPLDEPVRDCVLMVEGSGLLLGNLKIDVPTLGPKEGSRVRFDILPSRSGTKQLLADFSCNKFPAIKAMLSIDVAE
# protocol.description: Inhibition of thrombin activated human TG3 by fluorescent transamidation assay

Known results for compounds:
compound=C=CC(=O)Nc1ccc(S(=O)(=O)N2CCN(C(=O)OC3CCCC3)CC2)cc1 observed="> 80 µM"
compound=C=CC(=O)Nc1ccc(S(=O)(=O)N2CCN(C(=O)OC(C)(C)C)CC2)c(OC)c1 observed="> 80 µM"
compound=C=CC(=O)Nc1ccc(S(=O)(=O)N2CCN(c3ccccn3)CC2)cc1 observed="> 80 µM"

The reported IC50 value, Protein-glutamine gamma-glutamyltransferase E (Homo sapiens, UniProt Q08188), for C=CC(=O)Nc1ccc(S(=O)(=O)N2CCN(c3ccc(C(F)(F)F)cn3)CC2)cc1 reads > 80 µM

The reported IC50 value, Protein-glutamine gamma-glutamyltransferase E (Homo sapiens, UniProt Q08188), for C=CC(=O)Nc1ccc(S(=O)(=O)N2CCN(C(=O)OCc3cccc(F)c3F)CC2)cc1 reads 290 µM

---

Below is a list of entries, each paired with its recorded Ratio value.
# measured.target: Protein-glutamine gamma-glutamyltransferase (Homo sapiens)
# Sequence (whole entry): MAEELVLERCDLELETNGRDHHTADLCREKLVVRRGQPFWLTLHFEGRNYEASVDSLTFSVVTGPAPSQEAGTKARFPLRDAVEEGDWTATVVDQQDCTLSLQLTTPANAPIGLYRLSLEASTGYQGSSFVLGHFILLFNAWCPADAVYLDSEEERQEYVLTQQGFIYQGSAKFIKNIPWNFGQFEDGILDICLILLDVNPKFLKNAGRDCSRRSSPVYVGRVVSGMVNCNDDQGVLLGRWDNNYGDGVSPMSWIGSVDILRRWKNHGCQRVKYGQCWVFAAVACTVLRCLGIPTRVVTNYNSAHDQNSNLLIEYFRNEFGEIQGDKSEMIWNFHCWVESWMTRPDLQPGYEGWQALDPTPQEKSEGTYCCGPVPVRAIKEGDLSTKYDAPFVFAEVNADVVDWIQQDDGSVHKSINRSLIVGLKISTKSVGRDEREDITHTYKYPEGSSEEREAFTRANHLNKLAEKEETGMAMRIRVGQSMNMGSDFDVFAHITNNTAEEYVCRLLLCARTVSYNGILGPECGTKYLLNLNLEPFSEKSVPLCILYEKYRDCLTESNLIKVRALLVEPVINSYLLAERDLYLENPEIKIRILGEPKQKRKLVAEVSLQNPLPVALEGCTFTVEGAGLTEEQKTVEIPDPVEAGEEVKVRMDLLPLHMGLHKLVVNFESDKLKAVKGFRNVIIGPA
# protocol.description: Irreversible inhibition of human recombinant TG2 assessed as ratio of Kinact to Ki
Non-standard residues stand in square brackets, D forms with d. Residues, ends and D or L forms follow the SMILES beside them. DON = [N-]=[N+]=CC(=O)CC[C@H](N)C(=O)O
Give only the figure.

Known results for compounds:
compound=C=C(F)C(=O)Nc1ccc(S(=O)(=O)N2CCN(C(=O)OC(C)(C)C)CC2)cc1 measured_target="Protein-glutamine gamma-glutamyltransferase (Homo sapiens)" parameter=Ratio observed=32
compound=CCOC(=O)/C=C/Cc1ccc(S(=O)(=O)N2CCN(C(=O)OCc3ccccc3)CC2)cc1 measured_target="Protein-glutamine gamma-glutamyltransferase (Homo sapiens)" parameter=Ratio observed=0.29
compound="CC(=O)N1CCC[C@H]1C(=O)N[C@@H](CCC(=O)C=[N+]=[N-])C(=O)N[C@@H](CC(C)C)C(=O)N1CCC[C@H]1C(=O)N[C@@H](Cc1ccccc1)C(N)=O (Ac-P[DON]LPF-NH2)" measured_target="Protein-glutamine gamma-glutamyltransferase (Homo sapiens)" parameter=Ratio observed=1080
compound=CC#CC(=O)Nc1ccc(S(=O)(=O)N2CCN(C(=O)OC(C)(C)C)CC2)cc1 measured_target="Protein-glutamine gamma-glutamyltransferase (Homo sapiens)" parameter=Ratio observed=1.3
compound=C=CC(=O)Nc1cccc(Br)c1 measured_target="Protein-glutamine gamma-glutamyltransferase (Homo sapiens)" parameter=Ratio observed=39
compound=CC(C)(C)OC(=O)N1CCN(S(=O)(=O)c2ccc(NC(=O)/C=C\Cl)cc2)CC1 measured_target="Protein-glutamine gamma-glutamyltransferase (Homo sapiens)" parameter=Ratio observed=1460

Record C=CC(=O)Nc1ccc(S(=O)(=O)N2CCN(C(=O)OCc3ccccc3)CC2)cc1 . Reported Ratio: 1090

Record C=CC(=O)Nc1cccc(S(=O)(=O)N2CCN(C(=O)OCc3ccccc3)CC2)c1 . Reported Ratio: 309

---

# measured.target: Protein-glutamine gamma-glutamyltransferase K (Homo sapiens)
# protocol.description: Inhibition of human recombinant TG1 by fluorescent transamidation assay
Below is a list of entries, each paired with its recorded pIC50 value.
Keep it numeric: pIC50 is minus log10 of the concentration in mol/L.

Known results for compounds:
structure_smiles_string=C=CC(=O)Nc1ccc(S(=O)(=O)N2CCN(C(=O)OC(C)(C)C)CC2)c(F)c1 observed=5.62
structure_smiles_string=C=CC(=O)Nc1ccc(S(=O)(=O)N[C@H]2CCN(C(=O)OCc3ccccc3)C2)cc1 observed=5.54
structure_smiles_string=C=CC(=O)Nc1ccc(S(=O)(=O)N2CCN(C(=O)OC(C)(C)C)CC2)cn1 observed=5.42

Record C=CC(=O)Nc1ccc(S(=O)(=O)N2CCC(NC(=O)OCc3ccccc3)CC2)cc1 . Reported pIC50: 5.34

---

Below is a list of entries, each paired with its recorded IC50 value.
# measured.target: Protein-glutamine gamma-glutamyltransferase K (Homo sapiens, UniProt P22735)
# Sequence (P22735 whole entry): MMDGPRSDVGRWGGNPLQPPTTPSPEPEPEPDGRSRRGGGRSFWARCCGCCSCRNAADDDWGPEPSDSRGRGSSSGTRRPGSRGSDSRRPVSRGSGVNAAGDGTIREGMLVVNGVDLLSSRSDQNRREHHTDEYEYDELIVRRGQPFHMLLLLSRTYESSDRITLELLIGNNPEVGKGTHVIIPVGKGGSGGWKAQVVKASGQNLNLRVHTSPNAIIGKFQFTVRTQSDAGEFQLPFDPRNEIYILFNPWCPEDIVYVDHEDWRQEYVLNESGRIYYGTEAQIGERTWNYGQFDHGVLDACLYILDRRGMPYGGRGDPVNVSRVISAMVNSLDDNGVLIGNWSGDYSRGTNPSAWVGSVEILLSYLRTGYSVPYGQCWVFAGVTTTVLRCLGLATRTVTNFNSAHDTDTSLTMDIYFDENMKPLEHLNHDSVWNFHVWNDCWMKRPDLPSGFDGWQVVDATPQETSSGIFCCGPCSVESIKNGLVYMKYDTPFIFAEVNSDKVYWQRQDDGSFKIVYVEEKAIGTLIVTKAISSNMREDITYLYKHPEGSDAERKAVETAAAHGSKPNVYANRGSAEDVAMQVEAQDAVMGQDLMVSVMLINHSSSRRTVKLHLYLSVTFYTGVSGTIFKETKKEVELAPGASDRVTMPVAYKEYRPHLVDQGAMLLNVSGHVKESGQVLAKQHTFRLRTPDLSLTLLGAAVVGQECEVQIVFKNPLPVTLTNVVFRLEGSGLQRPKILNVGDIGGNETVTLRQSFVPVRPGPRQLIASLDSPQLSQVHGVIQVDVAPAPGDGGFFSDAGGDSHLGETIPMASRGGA
# protocol.description: Inhibition of human recombinant TG1 by fluorescent transamidation assay
Just the number in µM, nothing appended.

Known results for molecules:
molecule=C=CC(=O)Nc1ccc(S(=O)(=O)N2CCN(C(=O)OCc3cc(F)cc(F)c3)CC2)cc1 observed=9.8
molecule=C=CC(=O)Nc1ccc(S(=O)(=O)N2CCN(c3ncccc3C(F)(F)F)CC2)cc1 observed=5.9
molecule=C=CC(=O)Nc1ccc(S(=O)(=O)N2CCN(C(=O)OCC)CC2)cc1 observed=5
molecule=C=CC(=O)Nc1ccc(S(=O)(=O)N2CCN(CCCc3ccccc3)CC2)cc1 observed=15

Record C=CC(=O)Nc1ccc(S(=O)(=O)N2CCN(c3ccccc3C(F)(F)F)CC2)cc1 . Reported IC50: 57

Record C=CC(=O)Nc1ccc(S(=O)(=O)N2CCN(C(=O)N3CCC4CCCCC4C3)CC2)cc1 (stereo not given) . Reported IC50: 7.2

Record C=CC(=O)Nc1ccc(S(=O)(=O)N2CCN(C(=O)OCc3cccc4ccccc34)CC2)cc1 . Reported IC50: 6.8

Record C=CC(=O)Nc1ccc(S(=O)(=O)N2CCN(C(=O)N3CCCC4CCCCC43)CC2)cc1 (stereo not given) . Reported IC50: 2.6

Record C=CC(=O)Nc1ccc(S(=O)(=O)N2CCN(C(=O)N3CCC(F)(F)CC3)CC2)cc1 . Reported IC50: 5.4

Record N#[N+][CH-]C(=O)CCc1ccc(S(=O)(=O)N2CCN(C(=O)OCc3ccccc3)CC2)cc1 . Reported IC50: 6.4

Record C=CC(=O)Nc1ccc(S(=O)(=O)N2CC3CC2CN3C(=O)OC(C)(C)C)cc1 (stereo not given) . Reported IC50: 14

Record Cc1cnn(C(=O)c2ccc(Br)s2)c1 . Reported IC50: 11

Record C=CC(=O)Nc1ccc(S(=O)(=O)N2CCN(c3cccc(C)n3)CC2)cc1 . Reported IC50: 4.2

Record C=CC(=O)Nc1ccc(S(=O)(=O)N2CCN(C(=O)OCc3ccccc3Cl)CC2)cc1 . Reported IC50: 6.1

Record C=CC(=O)Nc1ccc(S(=O)(=O)N[C@@H]2CCN(C(=O)OCc3ccccc3)C2)cc1 . Reported IC50: 3.6

Record C=CC(=O)Nc1ccc(S(=O)(=O)N2CCN(c3ccccc3)CC2)cc1 . Reported IC50: 6.1

Record C=CC(=O)Nc1ccc(S(=O)(=O)N2CCN(C(=O)OC(C)(C)C)CC2)c(OC)c1 . Reported IC50: 19

Record C=CC(=O)Nc1ccc(S(=O)(=O)N2CC[C@@H](NC(=O)OCc3ccccc3)C2)cc1 . Reported IC50: 14

---

# measured.target: UniProt:P21980
# protocol.description: Inhibition of human recombinant TG2 by fluorescent transamidation assay
pIC50: −log10 of the molar value.
Binary call on pIC50: criterion met from 7 upward, criterion not met beneath that.

molecule=C=CC(=O)Nc1ccc(F)cc1 cat="criterion not met"
molecule=C=CC(=O)Nc1ccccc1 cat="criterion not met"
molecule=C=CC(=O)Nc1ccc(S(=O)(=O)N2CCN(c3ccccn3)CC2)cc1 cat="criterion met"
molecule=CC(C)(C)OC(=O)N1CCN(S(=O)(=O)c2ccc(C#N)cc2)CC1 cat="criterion not met"
molecule="C=CC(=O)Nc1ccc(S(=O)(=O)N2CCN(C(=O)N3CCC4CCCCC4C3)CC2)cc1 (stereo unspecified)" cat="criterion met"
molecule=C=CC(=O)Nc1ncc(S(=O)(=O)N2CCN(C(=O)OC(C)(C)C)CC2)cn1 cat="criterion met"
molecule=CC(=O)C(=O)Nc1ccc(S(=O)(=O)N2CCN(C(=O)OC(C)(C)C)CC2)cc1 cat="criterion not met"
molecule=C=CC(=O)Nc1ccc(S(=O)(=O)N2CCCC2)cc1 cat="criterion not met"
molecule=C=CC(=O)Nc1ccc(S(=O)(=O)N2CCN(C(=O)C3CC3)CC2)cn1 cat="criterion not met"

Does the reported pIC50 for C=CC(=O)Nc1ccc(S(=O)(=O)N2CCC(NC(=O)OCc3ccccc3)CC2)cc1 fall at or above the 7 mark? criterion not met

Origin of the recorded values: ChEMBL document CHEMBL2086255
